Protocol Details: Multi-dose pharmacokinetics 500 mg TID, 13 doses
Type: in vivo, human
Measurement Parameters: human, in vivo, 500 mg, 500 mg TID, Day 5 (13 doses); read-out: AUC0-τss, geometric mean

# Compound, AUC / µg·h/mL
rows = [
    ("CC(=O)O[C@H]1C[C@@]2(C)[C@@H](C[C@@H](O)[C@H]3[C@@]4(C)CC[C@@H](O)[C@@H](C)[C@@H]4CC[C@@]32C)/C1=C(\\CCC=C(C)C)C(=O)O [CEM-102, Sodium fusidate]", 1030),
]

----------
Protocol Details: Single oral dose bioavailability study, fed/fasted crossover, plasma fusidic acid
Measurement Parameters: human, in vivo, 500 mg, 500 mg single oral dose, fed, read-out: total exposure (AUC)

# Compound, AUC
data = [
    ("CC(=O)O[C@H]1C[C@@]2(C)[C@@H](C[C@@H](O)[C@H]3[C@@]4(C)CC[C@@H](O)[C@@H](C)[C@@H]4CC[C@@]32C)/C1=C(\\CCC=C(C)C)C(=O)O [CEM-102, Sodium fusidate]", "~285 µg·h/mL"),
]

----------
Protocol Details: Dose escalation study, single/multiple dose and loading dose regimens: pharmacokinetics
Assay type: in vivo, human
Measurement Parameters: human, in vivo, 1100 mg, Period 1 Day 1, single dose 1100 mg

# Compound, Measure Unit, Cmax
rows = [
    ("CC(=O)O[C@H]1C[C@@]2(C)[C@@H](C[C@@H](O)[C@H]3[C@@]4(C)CC[C@@H](O)[C@@H](C)[C@@H]4CC[C@@]32C)/C1=C(\\CCC=C(C)C)C(=O)O [CEM-102, Sodium fusidate]", "µg/mL", 72.2),
]

----------
Protocol Details: Dose escalation study, single/multiple dose and loading dose regimens: pharmacokinetics
Assay type: in vivo, human
Measurement Parameters: human, in vivo, 550 mg, Period 1 Day 1, single dose 550 mg
Method: The pharmacokinetics (PK), safety, and tolerability of single and multiple doses of CEM-102 (sodium fusidate) were evaluated in a single-center, Phase 1, double-blind, randomized, placebo-controlled, dose-escalating study in 32 healthy adult subjects enrolled in 4 dosage groups (550, 1100, 1650, and 2200 mg). In each cohort, six subjects were to receive CEM-102 and two were to receive placebo in a single dose (Period 1) and then multiple doses BID for a total of 11 doses over 5.5 days (Period 2). […]

# Molecule, Measure Unit, Vd/F
measured = [
    ("CC(=O)O[C@H]1C[C@@]2(C)[C@@H](C[C@@H](O)[C@H]3[C@@]4(C)CC[C@@H](O)[C@@H](C)[C@@H]4CC[C@@]32C)/C1=C(\\CCC=C(C)C)C(=O)O [CEM-102, Sodium fusidate]", "L", 28.4),
]

----------
Protocol Details: Dose escalation study, single/multiple dose and loading dose regimens: pharmacokinetics
Assay type: in vivo, human
Measurement Parameters: human, in vivo, 1100 mg, Period 1 Day 1, single dose 1100 mg; read-out: T1/2, harmonic mean (converted)
Measure Name: half-life

# Compound, Measure Name, Measured
measured = [
    ("CC(=O)O[C@H]1C[C@@]2(C)[C@@H](C[C@@H](O)[C@H]3[C@@]4(C)CC[C@@H](O)[C@@H](C)[C@@H]4CC[C@@]32C)/C1=C(\\CCC=C(C)C)C(=O)O [CEM-102, Sodium fusidate]", "half-life", "11.2 h"),
]
